// pEC50 lookup, one value per entry
- Test system: HCV genotype 1b replicon with NS5A L31V mutation
- method: Transiently transfected assay of genotype 1b resistance mutant RNA L31V
- Type: cell-based
- stated.conditions: Hepatitis C virus, Huh-7.5.1, 72 h, read-out: HCV Mutation L31V
pEC50: −log10 of the molar value.

{"compound": "CCCCC1(CCCC)c2cc(NC(=O)[C@@H]3CC(=O)CN3C(=O)[C@H](NC(=O)OC)c3ccccc3)ccc2-c2ccc(NC(=O)[C@@H]3CC4(CN3C(=O)[C@H](NC(=O)OC)c3ccccc3)OCCO4)cc21 [Example 7]", "test.system": "HCV genotype 1b replicon with NS5A L31V mutation", "endpoint.result": "11.00 to 12.00"}

Query compound follows.
Read off the recorded pEC50 for CCCCC1(CCCC)c2cc(NC(=O)[C@@H]3C[C@H](COC)CN3C(=O)[C@H](NC(=O)OC)c3ccccc3)ccc2-c2ccc(NC(=O)[C@@H]3C[C@H](COC)CN3C(=O)[C@H](NC(=O)OC)c3ccccc3)cc21 [Example 36]
11.00 to 12.00
